species: Homo sapiens; assay: Hemolysis of human erythrocyte at 64 uM; format: ADME
Peptide text beside a SMILES is read from it.
The entries below come with measured Hemolysis values attached.
MEASUREMENT_NAME: Hemolysis (%)

- COMPOUND: "CC[C@H](C)[C@H](NC(=O)[C@H](CCCCN)NC(=O)[C@H](CCCCN)NC(=O)[C@H](Cc1ccccc1)NC(=O)[C@H](CC(C)C)NC(=O)[C@H](CCCCN)NC(=O)[C@H](Cc1c[nH]c2ccccc12)NC(=O)[C@H](CCCCN)NC(C)=O)C(=O)NCC(=O)N[C@@H](CCCCN)C(=O)N[C@H](C(=O)N[C@@H](CC(C)C)C(=O)N[C@@H](CCCCN)C(=O)N[C@H](C(=O)N[C@@H](CC(C)C)C(N)=O)C(C)C)C(C)C (Ac-KWKLFKKIGKVLKVL-NH2)"
  MEASUREMENT_NAME: "Hemolysis"
  MEASUREMENT: 67
- COMPOUND: "CC[C@H](C)[C@H](NC(=O)[C@H](CCCCN)NC(=O)[C@H](CCCCN)NC(=O)[C@H](Cc1ccccc1)NC(=O)[C@H](CC(C)C)NC(=O)[C@H](CCCCN)NC(=O)[C@H](Cc1c[nH]c2ccccc12)NC(=O)[C@H](CCCCN)NC(C)=O)C(=O)NCC(=O)N[C@@H](CCCCN)C(=O)N[C@H](C(=O)N[C@@H](CC(C)C)C(=O)N[C@@H](CCCCN)C(=O)N[C@@H](CCCCN)C(=O)N[C@@H](CC(C)C)C(N)=O)C(C)C (Ac-KWKLFKKIGKVLKKL-NH2)"
  MEASUREMENT_NAME: "Hemolysis"
  MEASUREMENT: 8
- COMPOUND: "CC[C@H](C)[C@H](NC(=O)[C@H](CCCCN)NC(=O)[C@H](CCCCN)NC(=O)[C@H](Cc1ccccc1)NC(=O)[C@H](CCCCN)NC(=O)[C@H](CCCCN)NC(=O)[C@H](Cc1c[nH]c2ccccc12)NC(=O)[C@H](CCCCN)NC(C)=O)C(=O)NCC(=O)N[C@@H](C)C(=O)N[C@H](C(=O)N[C@@H](CC(C)C)C(=O)N[C@@H](CCCCN)C(=O)N[C@H](C(=O)N[C@@H](CC(C)C)C(N)=O)C(C)C)C(C)C (Ac-KWKKFKKIGAVLKVL-NH2)"
  MEASUREMENT_NAME: "Hemolysis"
  MEASUREMENT: 21
- COMPOUND: "CC[C@H](C)[C@H](NC(=O)[C@H](CCCCN)NC(=O)[C@H](CCCCN)NC(=O)[C@H](Cc1ccccc1)NC(=O)[C@H](CC(C)C)NC(=O)[C@H](CCCCN)NC(=O)[C@H](Cc1c[nH]c2ccccc12)NC(=O)[C@H](CCCCN)NC(C)=O)C(=O)NCC(=O)N[C@@H](C)C(=O)N[C@H](C(=O)N[C@@H](CC(C)C)C(=O)N[C@@H](CCCCN)C(=O)N[C@@H](CCCCN)C(=O)N[C@@H](CC(C)C)C(N)=O)C(C)C (Ac-KWKLFKKIGAVLKKL-NH2)"
  MEASUREMENT_NAME: "Hemolysis"
  MEASUREMENT: 4

Where these numbers come from: ChEMBL document CHEMBL1275574
